Listing: relative cell viability of selected compounds
system: HL-1; test: relative cell viability (CellTiter-Glo) vs DMSO control (% of DMSO control); higher = more viable cells; conditions: oxygen condition: normoxia 72 h; 40 nM
Where a name gives a salt, the structure may show the parent alone.
The answer should be a number; do not append a unit.

Guide cases for relative cell viability, answers given:
INSERT INTO assay_data (compound, metric, test_result) VALUES
  ('CCCC(=O)[O-].[Na+] [Sodium butyrate]', 'relative cell viability', 98.7),
  ('CS(=O)(=O)OCCCCOS(C)(=O)=O', 'relative cell viability', 104),
  ('Nc1ncnc2c1ncn2[C@@H]1O[C@H](CO)[C@@H](O)[C@H]1O', 'relative cell viability', 104);

Please fill in: relative cell viability reported for CCC[C@@H]1C[C@@H](C(=O)N[C@@H]([C@H]2O[C@H](SC)[C@H](O)[C@@H](O)[C@H]2O)[C@H](C)Cl)N(C)C1 [Clindamycin hydrochloride] = 102

Please fill in: relative cell viability reported for CC(=O)Oc1ccc(C(c2ccc(OC(C)=O)cc2)c2ccccn2)cc1 = 101

Please fill in: relative cell viability reported for CN(C)CC/C=C1/c2ccccc2COc2ccc(CC(=O)O)cc21 [Olopatadine hydrochloride] = 89.6

Please fill in: relative cell viability reported for O=C1[C@@H]2[C@H]3CC[C@H](C3)[C@@H]2C(=O)N1C[C@@H]1CCCC[C@H]1CN1CCN(c2nsc3ccccc23)CC1 [Lurasidone HCl] = 101

Please fill in: relative cell viability reported for COc1ccc(C[C@@H]2c3cc(OC)c(OC)cc3CC[N@+]2(C)CCC(=O)OCCCCCOC(=O)CC[N@@+]2(C)CCc3cc(OC)c(OC)cc3[C@H]2Cc2ccc(OC)c(OC)c2)cc1OC [Cisatracurium besylate] = 105
